Test: total protein half-life in vivo (active degradation + dilution); higher = more stable protein
Details: wild type E. coli NCM3722; growth: N-lim chemostat; doubling time 12 h
parameter measured: total protein half-life in vivo (h)
Answers are plain numbers, in h.

Study these solved cases before continuing.
item sequence	parameter measured	data value
MSDKFGEGRDPYLYPGLDIMRNRLNIRQQQRLEQAAYEMTALRAATIELGPLVRGLPHLRTIHRQLYQDIFDWAGQLREVDIYQGDTPFCHFAYIEKEGNALMQDLEEEGYLVGLEKAKFVERLAHYYCEINVLHPFRVGSGLAQRIFFEQLAIHAGYQLSWQGIEKEAWNQANQSGAMGDLTALQMIFSKVVSEAGESE	total protein half-life in vivo	7.12
MSVIETATVPLAQQQADALLNVKDLRVTFSTPDGDVTAVNDLNFSLRAGETLGIVGESGSGKSQTAFALMGLLAANGRIGGSATFNGREILNLPEHELNKLRAEQISMIFQDPMTSLNPYMRVGEQLMEVLMLHKNMSKAEAFEESVRMLDAVKMPEARKRMKMYPHEFSGGMRQRVMIAMALLCRPKLLIADEPTTALDVTVQAQIMTLLNELKREFNTAIIMITHDLVVVAGICDKVLVMYAGRTMEYGNARDVFYQPVHPYSIGLLNAVPRLDAEGETMLTIPGNPPNLLRLPKGCPFQPRCPHAMEICSSAPPLEEFTPGRLRACFKPVEELL	total protein half-life in vivo	11.4

Then there is this sequence:
Reported total protein half-life in vivo, sequence MKYDTSELCDIYQEDVNVVEPLFSNFGGRASFGGQIITVKCFEDNGLLYDLLEQNGRGRVLVVDGGGSVRRALVDAELARLAVQNEWEGLVIYGAVRQVDDLEELDIGIQAMAAIPVGAAGEGIGESDVRVNFGGVTFFSGDHLYADNTGIILSEDPLDIE [P0A8R0] : ____
8.11

Data provenance: the supplement of paper PMC11246515
